System: CAKI-1 renal
Assay: NCI-60 one-dose screen, 48 h (100 = growth as untreated, 0 = no growth, -100 = all killed)
Settings: 10 µM unless noted
Description: Growth inhibition of the CAKI-1 human tumor cell line is measured as a screen for anti-cancer activity. Cells are grown in 96 well plates and exposed to the test compound for 48 hours. Compounds are tested at a single concentration, which is 10^-5 M for most compounds. The reported endpoint is percent growth (GI% or GIPRCNT), where numbers from 0 - 100% represent growth inhibition, and numbers from -100% - 0 represent cell death. For example, a value of 40 represents 60% growth inhibition. […]
Compounds without any hit were thinned out: in the full panel of roughly 83,000, 20% have a hit.
// returns class 0 unless growth is strictly below 70%, in which case class 1

# molecule, classification
records = [
    ("Cc1c(Cl)cccc1C(=O)Nc1nc2c(s1)CN(C(=O)c1ccc(C(F)(F)F)cc1)CC2", "class 1"),
    ("CC1C(/C=N/NC(N)=S)C(C#N)(C#N)C1(C#N)C#N (stereo not given)", "class 0"),
    ("COc1ccc(C(=O)c2cc3c(N)c(C(=O)Nc4ccccc4)sc3nc2C)cc1", "class 1"),
    ("C[C@@H]1O[C@@H](O[C@@H]2C[C@H](c3ccc4c(c3O)C(=O)C3=C(C4=O)[C@@]4(O)C(=O)C[C@](C)(O)C[C@@]4(O)C=C3)O[C@H](C)[C@H]2O)CC[C@@H]1O[C@H]1C[C@@H](O)[C@H](O)[C@@H](C)O1", "class 0"),
]

----------
System: HCT-15 colon
Assay: NCI-60 one-dose screen, 48 h (100 = growth as untreated, 0 = no growth, -100 = all killed)
Settings: 10 µM unless noted
The panel holds about 83,000 compounds, 20% with a hit somewhere; the sample as a whole holds those more often.
// returns 0 (no) unless growth is strictly below 60%, in which case 1 (yes)

# given.smiles, classification
data = [
    ("CO[C@H]1CC(=O)n2c3ccccc3c3c4c(c5c6ccccc6n1c5c32)C(=O)NC4=O", "0 (no)"),
    ("O=C1NC(=O)/C(=C/c2c(-c3ccccc3)nc3sc(COc4ccccc4)nn23)S1", "0 (no)"),
    ("COc1ccc2[nH]cc(-c3nc(-c4c[nH]c5c(Cl)nccc45)cs3)c2c1", "1 (yes)"),
    ("Ic1ccccc1I", "0 (no)"),
    ("CN1CCN(Cc2ccc(NC(=O)c3cncc(C#Cc4cnc(N)c5ncccc45)c3)cc2C(F)(F)F)CC1", "1 (yes)"),
    ("O=C(CCCCCCN1CC(=O)N2[C@H](c3ccc(Cl)cc3)c3[nH]c4ccccc4c3C[C@@H]2C1=O)NO", "0 (no)"),
    ("O=S(=O)(NCCNc1nccc(-c2c(-c3cccc(O)c3)nc3occn23)n1)c1ccc(Br)cc1", "0 (no)"),
    ("COc1cc(C2C(C(=O)OCc3ccccc3)=C(C)NC(C)=C2C(=O)OCc2ccccc2)cc(OC)c1OC", "1 (yes)"),
]

----------
System: SK-MEL-5 melanoma
Test: NCI-60 one-dose screen, 48 h
Settings: 10 µM unless noted
The panel holds about 83,000 compounds, 20% with a hit somewhere; the sample as a whole holds those more often. Activity calls are given as the source filed them. How the source made its calls: active means growth percent below 10; inactive means the rest.
Outcome codes: active, inactive

# compound, study.system, classification
records = [
    ("Cc1ccc(NC(=O)Cn2c(Br)nc3c2c(=O)n(C)c(=O)n3C)cc1", "SK-MEL-5 melanoma", "inactive"),
    ("CN(Cc1cnc2nc(N)nc(N)c2n1)c1ccc(C(=O)NC(CCC(=O)O)C(=O)O)cc1Br (stereo not drawn)", "SK-MEL-5 melanoma", "inactive"),
    ("O=C(Nc1ncc(Cc2ccccc2)s1)c1ccc2c(c1)OCCCO2", "SK-MEL-5 melanoma", "active"),
    ("COC(=O)c1c2c(c(C)[n+]([O-])c1C)C(=O)C(NCc1ccc(OC)cc1)=CC2=O", "SK-MEL-5 melanoma", "active"),
    ("Cc1ccc2c(=O)cc(C(=O)Nc3sc4c(c3C(=O)NCc3cccnc3)CCCC4)oc2c1C", "SK-MEL-5 melanoma", "inactive"),
    ("O=C(Nc1ncccc1OCc1ccccc1)NC1CCCCCC1", "SK-MEL-5 melanoma", "inactive"),
    ("C=C1C(=O)O[C@H]2[C@H]1CC/C(COC(=O)CSCSCC(=O)OC/C1=C/CC[C@@]3(C)O[C@H]3[C@H]3OC(=O)C(=C)[C@@H]3CC1)=C\\CC[C@@]1(C)O[C@@H]21", "SK-MEL-5 melanoma", "inactive"),
    ("O=C(CN1CCCCCC1)Nc1nc2ccc(NCc3ccc(Cl)cc3)cc2s1", "SK-MEL-5 melanoma", "inactive"),
    ("O=C(/C=C/c1ccc(Cl)cc1)c1cccc(OCCCOc2cccc(C(=O)/C=C/c3ccc(Cl)cc3)c2)c1", "SK-MEL-5 melanoma", "inactive"),
    ("CC1=C(CCC(C)NCc2ccc(OCCCN3CCCCC3)cc2)C(C)(C)CCC1 (stereo not drawn)", "SK-MEL-5 melanoma", "active"),
    ("O=c1ccc(=O)n(-c2nc(-c3ccc([N+](=O)[O-])cc3)cs2)[nH]1", "SK-MEL-5 melanoma", "inactive"),
    ("CC(C)=CCNc1ncnc2c1ncn2C1OC(CO)C(O)C1O (stereo not drawn)", "SK-MEL-5 melanoma", "inactive"),
    ("COc1ccc2c(c1)c(-c1nc(-c3c[nH]c4ncccc34)cs1)cn2CCO", "SK-MEL-5 melanoma", "inactive"),
    ("N#C/C(=C\\c1ccc(-c2cccc(C(F)(F)F)c2)o1)c1ccccc1", "SK-MEL-5 melanoma", "inactive"),
    ("O=C(/C=C/C12c3ccccc3C(c3ccccc31)C1C(=O)NC(=O)C12)c1ccc(Br)cc1 (stereo not drawn)", "SK-MEL-5 melanoma", "inactive"),
    ("Nc1nc(N)c2c(n1)NC(c1cccc(Nc3ccnc4cc(C(F)(F)F)ccc34)c1)CC(c1ccc(Br)cc1)=N2 (stereo not drawn)", "SK-MEL-5 melanoma", "inactive"),
    ("N#CC1=C(N)Oc2ccc3ccccc3c2C1c1ccc([N+](=O)[O-])cc1 (stereo not drawn)", "SK-MEL-5 melanoma", "inactive"),
    ("OCCNCCNC(Cc1ccc(Cl)cc1)c1ccccc1 (stereo not drawn)", "SK-MEL-5 melanoma", "inactive"),
    ("Cc1ccc(C)c2c(C)c(C(=O)Nc3cccc(-n4cccn4)c3)oc12", "SK-MEL-5 melanoma", "inactive"),
    ("COc1ccc(-c2ccc(-c3ccc(C(=N)N)nc3)s2)cc1Cl", "SK-MEL-5 melanoma", "inactive"),
    ("O=S(=O)(NCCNc1nccc(-c2c(-c3ccc(F)c(O)c3)nc3sccn23)n1)c1ccc(F)cc1", "SK-MEL-5 melanoma", "active"),
    ("CC1=C2[C@@H](CC1)[C@]1(C)O[C@@](C3CCCCC3)(C[C@H]1OC(=O)CO)[C@H]2OC(=O)/C=C/c1ccccc1", "SK-MEL-5 melanoma", "inactive"),
    ("CCOc1c(OC)cc2c(c1O)C(=O)N[C@@H]1[C@@H](O)[C@@H](O)[C@H](O)C[C@@H]21", "SK-MEL-5 melanoma", "inactive"),
    ("Cc1nc2c(c(=O)[nH]1)C(c1ccccc1)c1ccc3ccccc3c1O2 (stereo not drawn)", "SK-MEL-5 melanoma", "inactive"),
    ("C=C(CNCCO)[C@@H]1CC[C@]2(CO)CC[C@]3(C)[C@H](CC[C@@H]4[C@@]5(C)CCC(N)C(C)(C)[C@@H]5CC[C@]43C)[C@@H]12 (stereo partly drawn)", "SK-MEL-5 melanoma", "active"),
    ("O=C(NNC(=O)c1nc2cc(F)ccc2n2cccc12)c1cnccn1", "SK-MEL-5 melanoma", "inactive"),
    ("O=C(O)c1cn(C2CC2)c2cc(N3CCN(C(=O)Nc4nc(-c5ccc(Br)cc5)cs4)CC3)c(F)cc2c1=O", "SK-MEL-5 melanoma", "active"),
    ("CN1CCN(CCOc2ccc(-c3cnc4c(-c5ccc(F)cc5)cnn4c3)cc2)CC1", "SK-MEL-5 melanoma", "inactive"),
]
